System: IL-2 production
procedure_details: Inhibition of IL-2 production in PHA-activated Jurkat cells (ELISA)
Assay type: cell-based
experimental_parameters: Homo sapiens, Jurkat, 20 h, PHA 2.5 μg/mL, IL-2 ELISA
measured_metric: IC50 (nM)

[[record]]
chemical_structure = "O=C(Nc1ccc(-c2cc(-c3nccs3)ccc2Cl)cn1)c1c(F)cccc1Cl"
reading = 10


P: O=C(Nc1ccc(-c2cc(-c3nccs3)ccc2Cl)cn1)c1ccccc1F
Q: Cc1ccc(-c2cccnc2)cc1-c1ccc(NC(=O)c2c(F)cccc2F)nc1
R: O=C(Nc1ccc(-c2cc(-c3cccnc3)ccc2Cl)cn1)c1c(F)cccc1F
S: O=C(Nc1ccc(-c2cc(-c3nccs3)ccc2Cl)cn1)c1c(F)cccc1C(F)(F)F
Write the entries in order, lowest recorded IC50 first. Answer by naming the labels in the order asked.
Q, R, P, S
